test system: SN12C; assay: NCI tumour cell line growth inhibition, 48 h
Calls of active or inactive are those of the source. Rule as the data show it: active = GI50 up to about 1.1 µM and inactive = higher.
Each entry below carries its recorded GI50.
experimental_readout: GI50

{"molecule": "N#C/C(=C\\N1CCNC1=S)C(=O)c1ccc2ccccc2c1", "meas_value": "> 100 µM (inactive)"}
{"molecule": "C=CCc1cccc(C(=O)/C=C(O)/C=C/c2ccccc2Cl)c1O", "meas_value": "25.6 µM (inactive)"}
{"molecule": "Cc1nn(C(=O)c2ccncc2)c2c1C(c1ccccc1[N+](=O)[O-])SC(=N)N2 (stereo unspecified)", "meas_value": "> 10 µM (inactive)"}
{"molecule": "Cc1ccc2[nH]c3c(c(=O)n(C)c(=O)n3C)c2c1", "meas_value": "> 100 µM (inactive)"}
{"molecule": "[O-][n+]1onc(-c2ccccc2)c1-c1no[n+]([O-])c1-c1c(-c2ccccc2)no[n+]1[O-]", "meas_value": "7.67 µM (inactive)"}
{"molecule": "O=C(N1CCOCC1)C1(c2ccccc2)CCNCC1", "meas_value": "> 100 µM (inactive)"}
{"molecule": "CN(C)CN1CSC(=S)N(CN(C)C)C1", "meas_value": "> 100 µM (inactive)"}
{"molecule": "N=C(N)N/N=C/c1c(-c2cccc([N+](=O)[O-])c2)nc2n1CCS2", "meas_value": "22.7 µM (inactive)"}
{"molecule": "O=C1Nc2ccccc2Cn2c1cc1oc(-c3ccccc3)cc12", "meas_value": "27.4 µM (inactive)"}
{"molecule": "CC12OC1(C)C1C(=O)OCC1C2=O (stereo unspecified)", "meas_value": "26.7 µM (inactive)"}
{"molecule": "C=CCSC1=N/C(=C\\c2ccco2)C(=O)N1CC=C", "meas_value": "> 100 µM (inactive)"}

Ref: ChEMBL document CHEMBL1201862
